target: Voltage-gated potassium channel, KQT; KCNQ2(Kv7.2)/KCNQ3(Kv7.3) (Homo sapiens, UniProt O43525+O43526); experiment: Activation of KCNQ2/Q3 expressed in CHO cells by atomic absorption Rb'+ efflux assay
Sequence (O43526 whole entry): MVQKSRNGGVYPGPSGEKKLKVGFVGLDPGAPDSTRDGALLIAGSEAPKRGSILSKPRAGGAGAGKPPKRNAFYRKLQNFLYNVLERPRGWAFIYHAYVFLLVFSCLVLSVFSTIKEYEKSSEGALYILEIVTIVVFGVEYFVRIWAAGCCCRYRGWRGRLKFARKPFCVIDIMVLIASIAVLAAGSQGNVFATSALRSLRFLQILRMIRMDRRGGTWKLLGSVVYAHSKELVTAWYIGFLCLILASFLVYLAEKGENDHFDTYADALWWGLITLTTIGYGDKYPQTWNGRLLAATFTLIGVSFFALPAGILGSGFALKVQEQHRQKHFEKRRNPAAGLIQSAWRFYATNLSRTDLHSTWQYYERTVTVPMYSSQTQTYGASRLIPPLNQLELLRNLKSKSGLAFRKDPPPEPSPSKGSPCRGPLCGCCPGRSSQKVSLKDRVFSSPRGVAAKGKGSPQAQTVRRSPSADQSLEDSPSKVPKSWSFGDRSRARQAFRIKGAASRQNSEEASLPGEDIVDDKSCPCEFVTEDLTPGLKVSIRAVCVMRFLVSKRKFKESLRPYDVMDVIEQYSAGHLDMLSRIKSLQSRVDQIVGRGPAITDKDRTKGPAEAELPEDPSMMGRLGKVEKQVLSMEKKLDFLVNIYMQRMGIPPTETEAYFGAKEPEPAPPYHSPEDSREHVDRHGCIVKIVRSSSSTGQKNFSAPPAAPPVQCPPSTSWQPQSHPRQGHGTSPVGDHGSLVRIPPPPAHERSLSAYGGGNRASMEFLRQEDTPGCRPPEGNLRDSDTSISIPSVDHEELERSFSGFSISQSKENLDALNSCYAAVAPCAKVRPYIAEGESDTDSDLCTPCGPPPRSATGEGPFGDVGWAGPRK
Sequence (O43525 whole entry): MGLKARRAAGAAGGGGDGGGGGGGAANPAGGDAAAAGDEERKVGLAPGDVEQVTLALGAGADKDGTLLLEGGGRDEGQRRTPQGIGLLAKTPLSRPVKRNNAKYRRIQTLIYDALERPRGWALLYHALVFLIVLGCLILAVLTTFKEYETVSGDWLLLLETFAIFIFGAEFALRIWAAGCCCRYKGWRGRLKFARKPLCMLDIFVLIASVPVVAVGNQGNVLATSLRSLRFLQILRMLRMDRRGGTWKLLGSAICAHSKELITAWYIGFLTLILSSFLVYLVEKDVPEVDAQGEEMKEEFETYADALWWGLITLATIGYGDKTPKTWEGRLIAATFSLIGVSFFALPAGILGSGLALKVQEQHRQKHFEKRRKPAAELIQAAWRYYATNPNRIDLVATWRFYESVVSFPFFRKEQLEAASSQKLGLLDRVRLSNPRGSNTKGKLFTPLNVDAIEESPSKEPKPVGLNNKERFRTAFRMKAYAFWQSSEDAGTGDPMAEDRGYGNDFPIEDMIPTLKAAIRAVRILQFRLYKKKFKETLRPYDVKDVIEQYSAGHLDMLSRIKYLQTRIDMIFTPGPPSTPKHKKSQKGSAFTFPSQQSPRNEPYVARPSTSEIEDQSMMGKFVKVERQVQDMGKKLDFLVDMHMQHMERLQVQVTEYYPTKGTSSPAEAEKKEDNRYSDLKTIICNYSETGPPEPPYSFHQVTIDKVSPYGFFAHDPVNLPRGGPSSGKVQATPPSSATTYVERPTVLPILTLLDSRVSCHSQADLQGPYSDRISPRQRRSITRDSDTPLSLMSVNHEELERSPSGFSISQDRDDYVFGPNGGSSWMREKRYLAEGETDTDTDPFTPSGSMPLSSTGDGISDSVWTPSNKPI
experimental.endpoint: pEC50
Give only the number. pEC50 is defined as minus log10 of concentration in molar units.

Study these solved cases before continuing.
{"cpd.smiles": "CCOC(=O)Nc1ccc(NCc2ccc(F)cc2)cc1N", "measurement": 6.37}
{"cpd.smiles": "O=c1cc(-c2cc(F)c(Cl)nc2Cl)[nH]c2c(-c3ccccc3)c(C(F)(F)F)nn12", "measurement": 7.22}
{"cpd.smiles": "O=c1cc(C(F)(F)F)[nH]c2c(-c3ccccc3)c(C(F)(F)F)nn12", "measurement": 5.84}
{"cpd.smiles": "O=c1cc(C(F)(F)F)[nH]c2c(-c3ccc(Cl)cc3)c(C(F)(F)F)nn12", "measurement": 5.69}
{"cpd.smiles": "CC(C)(C)c1cc(=O)n2nc(C(F)(F)F)c(-c3ccccc3)c2[nH]1", "measurement": 5.21}
{"cpd.smiles": "O=c1cc(-c2cccc([N+](=O)[O-])c2)[nH]c2c(-c3ccccc3)c(C(F)(F)F)nn12", "measurement": 6.24}

Next, consider the following molecule.
Challenge: Which pEC50 value belongs to O=c1cc(-c2cc(F)c(Cl)nc2Cl)[nH]c2c(-c3cccc4ccccc34)c(C(F)(F)F)nn12 ?
Response given: 6.82

* * *

target: Potassium voltage-gated channel subfamily KQT member 1 (Homo sapiens); assay: Activation of KCNQ1 expressed in HEK293 cells by atomic absorption Rb'+ efflux assay
Sequence (P51787 whole entry): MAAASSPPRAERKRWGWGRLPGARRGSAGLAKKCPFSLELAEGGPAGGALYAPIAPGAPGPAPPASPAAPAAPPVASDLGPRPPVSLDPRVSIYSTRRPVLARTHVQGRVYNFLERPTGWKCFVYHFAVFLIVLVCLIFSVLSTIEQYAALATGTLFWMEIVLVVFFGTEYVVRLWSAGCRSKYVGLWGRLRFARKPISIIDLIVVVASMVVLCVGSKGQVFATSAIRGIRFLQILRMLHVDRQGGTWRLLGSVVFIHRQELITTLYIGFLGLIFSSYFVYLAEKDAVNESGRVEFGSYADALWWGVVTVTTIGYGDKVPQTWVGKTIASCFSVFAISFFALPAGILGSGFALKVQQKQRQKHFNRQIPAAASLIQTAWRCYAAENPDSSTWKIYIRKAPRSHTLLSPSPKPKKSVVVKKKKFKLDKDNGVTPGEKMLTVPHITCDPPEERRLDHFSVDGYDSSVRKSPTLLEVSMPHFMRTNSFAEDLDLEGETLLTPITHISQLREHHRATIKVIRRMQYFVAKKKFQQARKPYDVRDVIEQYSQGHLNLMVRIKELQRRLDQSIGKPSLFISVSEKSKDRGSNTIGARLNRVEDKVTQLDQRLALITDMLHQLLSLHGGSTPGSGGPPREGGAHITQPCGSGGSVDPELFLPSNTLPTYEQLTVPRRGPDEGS
experimental.endpoint: EC50 (µM)
Write the answer as a number in µM, unit excluded.

Challenge: Which EC50 value belongs to O=c1cc(-c2cc(F)c(Cl)nc2Cl)[nH]c2c(-c3ccccc3)c(C(F)(F)F)nn12 ?
Response given: 49.3

* * *

target: Voltage-gated potassium channel, KQT; KCNQ2(Kv7.2)/KCNQ3(Kv7.3) (Homo sapiens, UniProt O43525+O43526); test: Activation of KCNQ2/Q3 expressed in CHO cells by atomic absorption Rb'+ efflux assay
Recorded pEC50, one value per entry.
Give only the number. pEC50 is defined as minus log10 of concentration in molar units.

{"cpd.smiles": "COc1ccc(-c2c(C(F)(F)F)nn3c(=O)cc(-c4cc(F)c(Cl)nc4Cl)[nH]c23)cc1OC", "experimental.endpoint": "pEC50", "measurement": 6.64}

Challenge: Which pEC50 value belongs to O=c1cc(-c2cc(F)c(F)c(F)c2F)[nH]c2c(-c3cccs3)c(C(F)(F)F)nn12 ?
Response given: 6.80

Challenge: O=c1cc(CCl)[nH]c2c(-c3ccc(Cl)cc3)c(C(F)(F)F)nn12 ?
Response given: 5.63

Challenge: O=c1cc(C(F)F)[nH]c2c(-c3ccccc3)c(C(F)(F)F)nn12 ?
Response given: 5.37

Challenge: O=c1cc(CCl)[nH]c2c(-c3cccc4ccccc34)c(C(F)(F)F)nn12 ?
Response given: 5.90

Challenge: CC(C)(C)c1cc(=O)n2nc(C(F)(F)F)c(-c3cccc4ccccc34)c2[nH]1 ?
Response given: 4.71

Challenge: O=c1cc(-c2cccc([N+](=O)[O-])c2)[nH]c2c(-c3cccs3)c(C(F)(F)F)nn12 ?
Response given: 6.24

* * *

Recorded EC50, one value per entry.
target: Voltage-gated potassium channel, KQT; KCNQ2(Kv7.2)/KCNQ3(Kv7.3) (Homo sapiens, UniProt O43525+O43526); assay: Activation of KCNQ2/Q3 expressed in CHO cells by atomic absorption Rb'+ efflux assay
Reply with the number and its unit after it.

Study these solved cases before continuing.
{"cpd.smiles": "O=c1cc(C(F)(F)F)[nH]c2c(-c3cccc4ccccc34)c(C(F)(F)F)nn12", "EC50": "4980 nM"}
{"cpd.smiles": "O=c1cc(-c2cc(F)c(F)cc2F)[nH]c2c(-c3ccc(Cl)cc3)c(C(F)(F)F)nn12", "EC50": "210 nM"}
{"cpd.smiles": "O=c1cc(-c2cc(F)c(F)c(F)c2F)[nH]c2c(-c3ccccc3)c(C(F)(F)F)nn12", "EC50": "600 nM"}

Challenge: Which EC50 value belongs to O=c1cc(CCl)[nH]c2c(-c3ccccc3)c(C(F)(F)F)nn12 ?
Response given: 2270 nM

Challenge: COc1ccc(-c2cc(=O)n3nc(C(F)(F)F)c(-c4ccccc4)c3[nH]2)cc1 ?
Response given: 1930 nM

Numbers sourced from ChEMBL document CHEMBL1687897.
